Tested on: Enterococcus faecium (ATCC 19634)
assay_name: Minimum Inhibitory Concentration, micro-dilution broth
Assay type: cell-based
assay_conditions: 24 h, 37° C.; read-out: Minimum Inhibitory Concentration E. faceium

[
  {
    "smi": "CCCCCCCCCCCC(=O)N(CCCNC(=O)[C@@H](N)CC(C)C)CCCNC(=O)[C@@H](N)CC(C)C.O=C(O)C(F)(F)F.O=C(O)C(F)(F)F",
    "MIC, µM": 8.6
  },
  {
    "smi": "CCCCCCCCCCCCCCCC(=O)N(CCCNC(=O)[C@@H]1CCCN1)CCCNC(=O)[C@@H]1CCCN1.O=C(O)C(F)(F)F.O=C(O)C(F)(F)F",
    "MIC, µM": 4
  },
  {
    "smi": "CCCCCCCCCC(=O)N(CCCNC(=O)[C@@H](N)Cc1ccccc1)CCCNC(=O)[C@@H](N)Cc1ccccc1.O=C(O)C(F)(F)F.O=C(O)C(F)(F)F",
    "MIC, µM": 36
  }
]
